experimentSummary: Crossover study of relative bioavailability of tablet versus capsule (005 Study): plasma PK
Type: in vivo, human
appliedConditions: human, plasma, po, 10 mg, single oral 10 mg Capsule, healthy adults; read-out: AUC(0-inf) Mean(SD)
valueType: AUC(0-inf)
In your response, the unit should come after the numeric value.

Request: Note down AUC(0-inf) recorded for "Cc1ncc(OC[C@@]2(c3cccc(F)c3)C[C@H]2C(=O)Nc2ccc(F)cn2)c(C)n1"
Response: 531 ng·h/mL

---

experimentSummary: Multiple ascending dose study (002 Study): plasma PK
Format: in vivo, human
appliedConditions: human, plasma, oral, 25 mg, Day 14, 25 mg once daily for 14 days; read-out: AUC(0-24) Mean(SD)
valueType: AUC(0-t) (ng·h/mL)
Report as a plain number; the unit ng·h/mL is understood.

Request: Note down AUC(0-t) recorded for Cc1ncc(OC[C@@]2(c3cccc(F)c3)C[C@H]2C(=O)Nc2ccc(F)cn2)c(C)n1 [Compound A]
Response: 1100
